# target_under_test: FLT3(D835H) (Homo sapiens (Human), UniProt P36888, D835H)
# experimental_protocol: KINOMEscan binding, FLT3(D835H)
# Description: The inhibitory activity on FLT kinase, such as wild-type FLT1, FLT3, FLT4, and FLT3 mutation forms, FLT3(D835H), FLT3(D835V), FLT3(D835Y), FLT3(ITD), FLT3(ITD,D835V), FLT3(ITD,F691L), FLT3(K663Q), FLT3(N841I), FLT3(R834Q) was measured. FLT3 kinase inhibition was carried out by KINOMEscan method (DiscoverX Inc.). KINOMEscan method consists of the following processes. […] The affinity of the compound to be tested was indirectly measured by Quantifying the eluted kinase by […].
measurement_kind: pKd
As a rule, pKd stands for the negative log10 of the concentration, concentration in M.

COc1cc(N2CCC(N3CCN(C)CC3)CC2)ccc1Nc1ncc(Cl)c(Nc2ccccc2NS(C)(=O)=O)n1; 7.42

Switching to the query record.
Ask: Name the recorded pKd for COc1cc(N2CCC(N(C)C)CC2)ccc1Nc1ncc(Cl)c(Nc2ccccc2NS(C)(=O)=O)n1 .
Result: 8.74

---

# target_under_test: EGFR wt. (Homo sapiens (Human), UniProt P00533)
# Sequence (P00533 25-1210): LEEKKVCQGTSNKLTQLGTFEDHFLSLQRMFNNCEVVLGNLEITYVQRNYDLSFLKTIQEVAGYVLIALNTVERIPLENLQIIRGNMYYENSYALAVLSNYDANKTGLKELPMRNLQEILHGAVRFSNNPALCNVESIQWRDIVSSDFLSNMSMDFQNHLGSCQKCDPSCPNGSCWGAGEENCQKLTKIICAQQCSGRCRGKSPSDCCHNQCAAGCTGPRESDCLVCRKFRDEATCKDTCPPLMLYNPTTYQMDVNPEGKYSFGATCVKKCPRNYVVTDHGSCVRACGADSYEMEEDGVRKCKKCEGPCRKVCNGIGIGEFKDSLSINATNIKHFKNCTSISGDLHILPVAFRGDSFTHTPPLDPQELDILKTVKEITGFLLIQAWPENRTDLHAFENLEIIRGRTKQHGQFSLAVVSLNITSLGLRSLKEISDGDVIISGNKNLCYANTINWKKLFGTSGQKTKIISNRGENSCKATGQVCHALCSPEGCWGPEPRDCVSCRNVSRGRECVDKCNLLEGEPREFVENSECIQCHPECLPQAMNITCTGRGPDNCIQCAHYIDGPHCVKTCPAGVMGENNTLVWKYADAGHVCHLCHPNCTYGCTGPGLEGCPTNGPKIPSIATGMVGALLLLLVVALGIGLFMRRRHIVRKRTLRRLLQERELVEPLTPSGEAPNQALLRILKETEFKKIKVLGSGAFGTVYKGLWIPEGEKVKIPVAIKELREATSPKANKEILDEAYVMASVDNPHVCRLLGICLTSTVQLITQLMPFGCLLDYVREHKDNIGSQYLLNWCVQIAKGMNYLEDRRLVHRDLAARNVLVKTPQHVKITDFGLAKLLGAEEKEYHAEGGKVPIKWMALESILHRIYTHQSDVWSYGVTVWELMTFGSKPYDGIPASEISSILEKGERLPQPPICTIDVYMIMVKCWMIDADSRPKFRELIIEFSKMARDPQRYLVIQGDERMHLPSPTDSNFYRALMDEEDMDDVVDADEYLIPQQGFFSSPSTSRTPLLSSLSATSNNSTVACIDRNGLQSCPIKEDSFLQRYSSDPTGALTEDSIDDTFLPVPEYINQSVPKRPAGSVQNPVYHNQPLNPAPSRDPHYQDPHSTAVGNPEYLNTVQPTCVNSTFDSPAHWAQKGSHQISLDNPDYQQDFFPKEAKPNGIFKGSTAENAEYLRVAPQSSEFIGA
# experimental_protocol: HTRF enzyme assay, wild-type EGFR
# protocol_conditions: recombinant enzyme
# maps each entry to its IC50
Please state the figure in nM; there is no need to write the unit.

COc1cc(C2CCN(C3CCNCC3)CC2)ccc1Nc1ncc(Cl)c(Nc2ccccc2NS(C)(=O)=O)n1; 5400
COc1cc(N2CCC(N3CCNCC3)CC2)ccc1Nc1ncc(Cl)c(Nc2ccccc2NS(C)(=O)=O)n1; 160
COc1cc(C2CCN(C3CCN(CCO)CC3)CC2)ccc1Nc1ncc(Cl)c(Nc2ccccc2NS(C)(=O)=O)n1; 1400
COc1cc(C2CCNCC2)ccc1Nc1ncc(C(F)(F)F)c(Nc2ccccc2NS(C)(=O)=O)n1; 4300
COc1cc(N2CCC(N3CCN(CCO)CC3)CC2)ccc1Nc1ncc(Cl)c(Nc2ccccc2NS(C)(=O)=O)n1; 260
COc1cc(C2CCN(C3CCN(C)CC3)CC2)ccc1Nc1ncc(Cl)c(Nc2ccccc2NS(C)(=O)=O)n1; 600

Ask: Name the recorded IC50 for COc1cc(N2CCNCC2)ccc1Nc1ncc(Cl)c(Nc2ccccc2NS(N)(=O)=O)n1 .
Result: 1200

---

# Test system: Ba/F3 EGFR del19/T790M/C797S cell line
# experimental_protocol: CellTiter-Glo cell viability, Ba/F3 EGFR del19/T790M/C797S
# Format: cell-based
# protocol_conditions: CellTiter-Glo, 72 hours, read-out: Ba/F3 EGFR del19/T790M/C797S IC50
# Method: The measurement of an activity on wild-type and mutation Ba/F3 EGFR cell line of the compound of the present invention was experimented by utilizing the CellTiter-Glo system sold by Promega, as follow. The CellTiter-Glo assay is a method for measuring the ATP present in cells in cell culture conditions to determine the cell viability. The analysis of an EGFR inhibitory ability effect of the compound was carried out in accordance with the analysis reaction recipe below. […]
measurement_kind: IC50 (nM)
Please state the figure in nM; there is no need to write the unit.

Known IC50 results, listed for orientation:
COc1cc(N2CCNCC2)ccc1Nc1ncc(Cl)c(Nc2ccccc2NS(N)(=O)=O)n1; 2900
COc1cc(N2CCC(N3C[C@@H](C)N[C@@H](C)C3)CC2)ccc1Nc1ncc(Cl)c(Nc2ccccc2NS(C)(=O)=O)n1; 120
COc1cc(N2CCC(N(C)C)CC2)ccc1Nc1ncc(Cl)c(Nc2ccccc2NS(N)(=O)=O)n1; 930
COc1cc(N2CCN(C)CC2)ccc1Nc1ncc(Cl)c(Nc2ccccc2NS(C)(=O)=O)n1; 1700
COc1cc(C2CCNCC2)ccc1Nc1ncc(Cl)c(Nc2ccccc2NS(N)(=O)=O)n1; 5800

Ask: # returns recorded IC50 (system: Ba/F3 EGFR del19/T790M/C797S cell line) for COc1cc(C2CCNCC2)ccc1Nc1ncc(Br)c(Nc2ccccc2NS(C)(=O)=O)n1
Result: 1600

Ask: # returns recorded IC50 (system: Ba/F3 EGFR del19/T790M/C797S cell line) for COc1cc(C2CCNCC2)c(C)cc1Nc1ncc(Cl)c(Nc2ccccc2NS(C)(=O)=O)n1
Result: 2400

Ask: # returns recorded IC50 (system: Ba/F3 EGFR del19/T790M/C797S cell line) for COc1cc(C2CCNCC2)ccc1Nc1ncc(C(F)(F)F)c(Nc2ccccc2NS(C)(=O)=O)n1
Result: 790

Ask: # returns recorded IC50 (system: Ba/F3 EGFR del19/T790M/C797S cell line) for COc1cc(N2CCN(C3CCN(C)CC3)CC2)ccc1Nc1ncc(Cl)c(Nc2ccccc2NS(C)(=O)=O)n1
Result: 27

Ask: # returns recorded IC50 (system: Ba/F3 EGFR del19/T790M/C797S cell line) for COc1cc(C2CCN(CCO)CC2)ccc1Nc1ncc(Cl)c(Nc2ccccc2NS(C)(=O)=O)n1
Result: 1500
